# system name: Grb2 SH2 (UniProt P62993)
# Sequence (P62993 whole entry, looked up, the tested form may be a part): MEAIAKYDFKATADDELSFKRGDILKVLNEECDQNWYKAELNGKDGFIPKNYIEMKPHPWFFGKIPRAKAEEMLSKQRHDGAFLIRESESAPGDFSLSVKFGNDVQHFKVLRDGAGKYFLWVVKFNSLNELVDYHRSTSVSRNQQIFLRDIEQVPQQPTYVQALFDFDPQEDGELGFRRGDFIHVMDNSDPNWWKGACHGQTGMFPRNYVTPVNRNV
# run description: SH2 binding enrichment of the phosphorylated peptide, bacterial display (enrichment ratio); higher = better substrate or ligand; peptides without Tyr show the background;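 also: peptide library displayed on the E. coli surface as eCPX fusions, selected cells deep-sequenced, score is each peptide's frequency after selection divided by its frequency in the input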
Param threshold (0.9) applies to SH2 binding enrichment; output 1 when value >= threshold, -1 when value < threshold.

Some entries whose results are on file:
AVIADYMFWLG [SPATA16_Y290_M286V]	1
GDPTEYFITAI [IGSF22_Y501_S503I_YF]	-1
FKNGDYSEVMK [LCT_Y1638_N1639S]	1

Prompt line: Quick check: does LPEENYQVLRF [ARHGAP1_Y365] have SH2 binding enrichment greater than or equal to 0.9?
Response line: 1

Prompt line: # bool: SH2 binding enrichment of ARGTRYRYVSQ [UCN3_Y95] >= 0.9
Response line: -1

Prompt line: Check the entry RLPNGYGLAFR [DLK1_Y262_S260N_YF] : does SH2 binding enrichment equal or exceed 0.9?
Response line: 1

Prompt line: Confirm if SH2 binding enrichment reported for the sequence KEKLCYVALDF [ACTA1_Y220] is 0.9 or above.
Response line: -1

Prompt line: Is SH2 binding enrichment for IMNLLYHVVGW [GBA_Y412_T408M] at or above 0.9?
Response line: 1

Prompt line: Reported SH2 binding enrichment reaches at least 0.9 for EILLSYPRTGY [TGM1_Y365_L366P] ?
Response line: 1

Prompt line: Textbook exercise: given the entry KYLENYLNRLL [PLD2_Y169] , state whether its SH2 binding enrichment is greater than or equal to 0.9.
Response line: 1

Prompt line: Record SFPPTYRYERG [INPPL1_Y661] ; criterion: SH2 binding enrichment no lower than 0.9. Met?
Response line: -1
